ENDPOINT_LABEL: melting point

Some solved entries appear below for comparison.
CHEMICAL_STRING: COc1cc(C(=O)c2sc(NCc3ccc(C)cc3)nc2N)cc(OC)c1OC
RESULT: 145 to 147 °C

CHEMICAL_STRING: COc1ccc(CNc2nc(N)c(C(=O)c3cc(OC)c(OC)c(OC)c3)s2)cc1OC
RESULT: 107 to 111 °C

CHEMICAL_STRING: COc1cc(C(=O)c2sc(NCc3ccc(Br)cc3)nc2N)cc(OC)c1OC
RESULT: 154 to 157 °C

CHEMICAL_STRING: COc1cccc(CNc2nc(N)c(C(=O)c3cc(OC)c(OC)c(OC)c3)s2)c1
RESULT: 125 to 128 °C

CHEMICAL_STRING: COc1cc(C(=O)c2sc(NCc3ccc(Cl)cc3)nc2N)cc(OC)c1OC
RESULT: 156 to 159 °C

Noted for COc1cc(C(=O)c2sc(NCc3ccc4c(c3)OCO4)nc2N)cc(OC)c1OC : its melting point reads 156 to 158 °C
